Assay: physchem
Details: aqueous with cosolvent or surfactant or cyclodextrin, kinetic from dmso stock

{"columns": ["Molecule", "solubility (µg/mL)"],
 "data": [
  ["Fc1ccc([C@]2(Cn3cncn3)O[C@H]2c2ccccc2Cl)cc1 (racemic) [Epoxiconazole]", 30]
]}

* * *

Assay: Solubility / effective solubilized concentration in 10% DMSO/90% PDB by HPLC
Conditions: aqueous with cosolvent or surfactant or cyclodextrin, kinetic from dmso stock, solubility, in 10% DMSO/90% PDB; HPLC
The entries below come with measured solubility values attached.

{"columns": ["Cpd smiles", "solubility, µg/mL"],
 "data": [
  ["N#Cc1c[nH]cc1-c1cccc2c1OC(F)(F)O2", 15.4],
  ["COC(=O)N(OC)c1ccccc1COc1ccn(-c2ccc(Cl)cc2)n1", 15.4]
]}

* * *

Assay: Solubility / effective solubilized concentration in 10% DMSO/90% PDB by HPLC
Conditions: 10% DMSO/90% potato dextrose broth (PDB), aqueous with cosolvent or surfactant or cyclodextrin, kinetic from dmso stock
The entries below come with measured solubility values attached.
Quantity kind: solubility (µg/mL)

{"columns": ["Compound", "Endpoint unit", "Reported measurement"],
 "data": [
  ["CCCC1COC(Cn2cncn2)(c2ccc(Cl)cc2Cl)O1 (centres unmarked)", "µg/mL", 89],
  ["CC(C)(C)C(O)(CCc1ccc(Cl)cc1)Cn1cncn1 (centres unmarked)", "µg/mL", 450]
]}

* * *

Experiment: Solubility / effective solubilized concentration in 10% DMSO/90% PDB by HPLC
Conditions: aqueous with cosolvent or surfactant or cyclodextrin, kinetic from dmso stock, effective solubilized concentration of working stock solution, DMSO stock diluted 10-fold in PDB; verified by HPLC
Quantity kind: solubility (mg/mL)

{"columns": ["Molecule", "Endpoint unit", "Reported measurement"],
 "data": [
  ["N#Cc1c[nH]cc1-c1cccc2c1OC(F)(F)O2 [Fludioxonil, fludioxonil]", "mg/mL", 0.021],
  ["COC(=O)N(OC)c1ccccc1COc1ccn(-c2ccc(Cl)cc2)n1 [Pyraclostrobin, pyraclostrobin]", "mg/mL", 0.015],
  ["COCC(=O)N(c1c(C)cccc1C)C(C)C(=O)OC (stereo not shown) [Metalaxyl]", "mg/mL", 0.316],
  ["N#Cc1c(Cl)c(Cl)c(Cl)c(C#N)c1Cl [Chlorothalonil]", "mg/mL", 0.002]
]}
